Origin of the recorded values: paper PMC10709440

- TESTED_ON: Drosophila OR47a (Drosophila melanogaster)
- Construct: expressed in transfected cells
- Sequence (P81921 whole entry, one chain of several): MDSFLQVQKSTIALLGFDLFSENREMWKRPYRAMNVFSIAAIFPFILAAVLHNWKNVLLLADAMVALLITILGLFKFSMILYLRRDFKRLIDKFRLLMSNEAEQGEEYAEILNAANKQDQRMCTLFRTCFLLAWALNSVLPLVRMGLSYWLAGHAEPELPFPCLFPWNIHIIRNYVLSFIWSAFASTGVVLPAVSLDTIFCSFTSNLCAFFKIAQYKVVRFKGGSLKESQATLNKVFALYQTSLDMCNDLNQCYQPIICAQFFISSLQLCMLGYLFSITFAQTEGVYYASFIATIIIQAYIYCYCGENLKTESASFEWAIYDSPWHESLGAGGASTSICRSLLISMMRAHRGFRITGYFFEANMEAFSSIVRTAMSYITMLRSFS
- ASSAY_METHOD_TEXT: Calcium ion fluorescence (GCaMP6) assay, OR47a stable HEK293 cell line
- Assay type: cell-based
- CONDITIONS_USED: ligand concentration 10 (unit not given); threshold 0.05, below shown as 0
DF norm AVERAGE OR47a values by entry

COMPOUND: CC(=O)c1ccccc1
TESTED_ON: Drosophila OR47a (Drosophila melanogaster)
DF norm AVERAGE OR47a: 0

COMPOUND: C=C(C)[C@H]1CC=C(C)CC1
TESTED_ON: Drosophila OR47a (Drosophila melanogaster)
DF norm AVERAGE OR47a: 0

COMPOUND: CC(=O)OCCC(C)C [isopentyl acetate]
TESTED_ON: Drosophila OR47a (Drosophila melanogaster)
DF norm AVERAGE OR47a: 0.1209

COMPOUND: C=C1CCC2(C(C)C)CC12 (stereo not drawn)
TESTED_ON: Drosophila OR47a (Drosophila melanogaster)
DF norm AVERAGE OR47a: 0

COMPOUND: CC(C)=CCC/C(C)=C/CC/C(C)=C/CO
TESTED_ON: Drosophila OR47a (Drosophila melanogaster)
DF norm AVERAGE OR47a: 0

Okay, next one:
Exam item: Reported DF norm AVERAGE OR47a, compound CC1=CC[C@@H](C(C)(C)O)CC1 : ____
Marked response: 0

* * *

Average response values by entry
- TESTED_ON: Drosophila OR71a (Drosophila melanogaster, UniProt Q9VUK5)
- Construct: expressed in transfected cells
- Sequence (Q9VUK5 whole entry, one chain of several): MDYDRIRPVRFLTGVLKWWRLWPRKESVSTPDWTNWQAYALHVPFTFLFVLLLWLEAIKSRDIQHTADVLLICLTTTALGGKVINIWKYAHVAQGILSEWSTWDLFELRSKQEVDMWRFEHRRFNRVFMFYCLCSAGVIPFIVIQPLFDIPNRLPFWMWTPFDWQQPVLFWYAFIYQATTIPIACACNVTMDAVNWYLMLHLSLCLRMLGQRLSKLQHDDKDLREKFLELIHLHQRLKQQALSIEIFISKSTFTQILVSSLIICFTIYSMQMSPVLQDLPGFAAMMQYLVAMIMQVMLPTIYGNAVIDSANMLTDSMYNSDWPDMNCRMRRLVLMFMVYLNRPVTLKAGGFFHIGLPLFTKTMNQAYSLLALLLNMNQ
- ASSAY_METHOD_TEXT: Calcium ion fluorescence (GCaMP6) assay, OR71a stable HEK293 cell line
- Format: cell-based
- CONDITIONS_USED: OR71a cell line; cc. 10 µM; VUAA1-normalized response, mean of biological replicates
Write the value as a bare number.

COMPOUND: Cc1ccc(C(C)C)cc1 [p-cymene]
TESTED_ON: Drosophila OR71a (Drosophila melanogaster, UniProt Q9VUK5)
Average response: 0.023

Okay, next one:
Exam item: Item COC(=O)c1ccccc1 [methyl benzoate] with Drosophila OR71a (Drosophila melanogaster, UniProt Q9VUK5) - Average response?
Marked response: 0.00

* * *

- TESTED_ON: Drosophila OR85b (Drosophila melanogaster, UniProt Q9VHQ7)
- Construct: expressed in transfected cells
- Sequence (Q9VHQ7 whole entry, one chain of several): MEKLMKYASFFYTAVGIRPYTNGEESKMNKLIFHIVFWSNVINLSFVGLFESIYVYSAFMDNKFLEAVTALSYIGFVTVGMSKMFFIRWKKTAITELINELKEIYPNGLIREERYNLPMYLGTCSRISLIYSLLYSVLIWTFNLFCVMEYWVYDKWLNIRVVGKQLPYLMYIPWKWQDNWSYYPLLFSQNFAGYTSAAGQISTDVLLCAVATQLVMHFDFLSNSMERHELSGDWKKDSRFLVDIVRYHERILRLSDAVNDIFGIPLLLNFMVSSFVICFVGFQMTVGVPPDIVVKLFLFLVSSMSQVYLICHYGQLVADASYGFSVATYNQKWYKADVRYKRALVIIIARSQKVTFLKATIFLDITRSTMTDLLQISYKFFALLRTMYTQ
- ASSAY_METHOD_TEXT: Calcium ion fluorescence (GCaMP6) assay, OR85b stable HEK293 cell line
- Assay type: cell-based
- CONDITIONS_USED: ligand concentration 1 (unit not given); threshold 0.05, below shown as 0
OBSERVED_PROPERTY: DF norm AVERAGE OR85b
Write the value as a bare number.

COMPOUND: CCCOC(C)=O [propyl acetate]
DF norm AVERAGE OR85b: 0.05375
--
COMPOUND: CC(=O)OCC(C)C [isobutyl acetate]
DF norm AVERAGE OR85b: 0
--
COMPOUND: CC(=O)OCCC(C)C [isopentyl acetate]
DF norm AVERAGE OR85b: 0
--
COMPOUND: CC(C)=CCC/C(C)=C/CC/C(C)=C/CO
DF norm AVERAGE OR85b: 0.05296
--
COMPOUND: CCCCCC(=O)OCC [ethyl hexanoate]
DF norm AVERAGE OR85b: 0
--
COMPOUND: CC1=CCC2CC1C2(C)C (stereo not drawn)
DF norm AVERAGE OR85b: 0

Exam item: Item CC1=CC[C@@H](C(C)(C)O)CC1 with Drosophila OR85b (Drosophila melanogaster, UniProt Q9VHQ7) - DF norm AVERAGE OR85b?
Marked response: 0

Exam item: Item CCOC(=O)CC [ethyl propionate] with Drosophila OR85b (Drosophila melanogaster, UniProt Q9VHQ7) - DF norm AVERAGE OR85b?
Marked response: 0

Exam item: Item C=C1CCC2(C(C)C)CC12 (stereo not drawn) with Drosophila OR85b (Drosophila melanogaster, UniProt Q9VHQ7) - DF norm AVERAGE OR85b?
Marked response: 0.06468

* * *

Average response values by entry
- TESTED_ON: Drosophila OR49b (Drosophila melanogaster, UniProt Q9V6H2)
- Construct: expressed in transfected cells
- Sequence (Q9V6H2 1-375): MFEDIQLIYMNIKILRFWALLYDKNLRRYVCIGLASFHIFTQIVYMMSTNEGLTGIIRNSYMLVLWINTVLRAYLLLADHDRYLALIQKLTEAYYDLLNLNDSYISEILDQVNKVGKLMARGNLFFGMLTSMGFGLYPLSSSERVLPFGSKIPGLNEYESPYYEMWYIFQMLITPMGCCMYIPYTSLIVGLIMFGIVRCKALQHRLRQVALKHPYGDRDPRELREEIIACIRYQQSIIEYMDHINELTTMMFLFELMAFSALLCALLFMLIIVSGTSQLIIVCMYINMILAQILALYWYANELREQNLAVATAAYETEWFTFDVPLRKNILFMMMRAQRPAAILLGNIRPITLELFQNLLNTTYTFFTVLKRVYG
- Sequence (Q9VNB5 1-486 partner): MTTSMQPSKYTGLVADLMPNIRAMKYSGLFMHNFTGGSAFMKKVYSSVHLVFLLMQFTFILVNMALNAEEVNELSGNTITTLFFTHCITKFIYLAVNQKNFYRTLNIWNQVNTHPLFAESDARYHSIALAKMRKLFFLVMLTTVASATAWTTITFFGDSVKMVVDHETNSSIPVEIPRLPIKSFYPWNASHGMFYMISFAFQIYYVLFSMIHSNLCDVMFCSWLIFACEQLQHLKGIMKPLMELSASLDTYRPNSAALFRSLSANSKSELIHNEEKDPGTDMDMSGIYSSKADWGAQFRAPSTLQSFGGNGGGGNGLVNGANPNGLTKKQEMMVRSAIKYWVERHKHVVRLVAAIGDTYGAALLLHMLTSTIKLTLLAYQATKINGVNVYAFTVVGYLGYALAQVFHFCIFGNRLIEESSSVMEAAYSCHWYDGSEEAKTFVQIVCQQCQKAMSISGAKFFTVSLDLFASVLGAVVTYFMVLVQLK
- ASSAY_METHOD_TEXT: cell-based
- CONDITIONS_USED: OR49b cell line; odorant cc. 100 µM; mean of biological replicates

Study these solved cases before continuing.
MOLECULE: Cc1ccc(C)cc1
RESULT: 0.38
--
MOLECULE: C=CC(O)CCCCC (centres unmarked)
RESULT: 0.0145
--
MOLECULE: C=C1CCC2CC1C2(C)C (centres unmarked)
RESULT: 0.00
--
MOLECULE: CCCCCC(=O)OCC [ethyl hexanoate]
RESULT: 0.00
--
MOLECULE: CCCCCC(C)O (centres unmarked)
RESULT: 0.0651
--
MOLECULE: CCCCCOC(C)=O [pentyl acetate]
RESULT: 0.06
--
MOLECULE: C=C1[C@H]2CC[C@@H]3[C@H]2C(C)(C)CCC[C@]13C [(+)-longifolene]
RESULT: 0.00
--
MOLECULE: CCCCCC(=O)CC
RESULT: 0.0439
--
MOLECULE: CC(=O)c1ccccc1
RESULT: 0.13
--
MOLECULE: Cc1ccccc1
RESULT: 0.44

Exam item: Reported Average response, molecule CC1=CCC2CC1C2(C)C (centres unmarked) : ____
Marked response: 0.00

Exam item: Reported Average response, molecule CC/C=C/CCO : ____
Marked response: 0.08

Exam item: Reported Average response, molecule C=CC(C)(O)CCC=C(C)C (centres unmarked) : ____
Marked response: 0.0212

Exam item: Reported Average response, molecule CC(=O)OCC(C)C [isobutyl acetate] : ____
Marked response: 0.00

* * *

- TESTED_ON: Drosophila OR10a (Drosophila melanogaster, UniProt Q9VYZ1)
- Construct: expressed in transfected cells
- Sequence (Q9VYZ1 whole entry, one chain of several): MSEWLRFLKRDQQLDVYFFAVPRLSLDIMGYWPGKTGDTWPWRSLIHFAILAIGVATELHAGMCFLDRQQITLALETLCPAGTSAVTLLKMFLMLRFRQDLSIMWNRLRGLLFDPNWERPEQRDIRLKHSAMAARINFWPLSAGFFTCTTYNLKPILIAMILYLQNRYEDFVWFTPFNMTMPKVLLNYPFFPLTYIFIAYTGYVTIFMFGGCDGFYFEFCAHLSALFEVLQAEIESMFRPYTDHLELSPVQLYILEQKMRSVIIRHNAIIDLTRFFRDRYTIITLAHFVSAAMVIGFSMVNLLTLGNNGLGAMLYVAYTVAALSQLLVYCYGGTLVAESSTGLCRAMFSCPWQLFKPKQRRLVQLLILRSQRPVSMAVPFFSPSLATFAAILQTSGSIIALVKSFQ
- ASSAY_METHOD_TEXT: Calcium ion fluorescence (GCaMP6) assay, OR10a stable HEK293 cell line
- Type: cell-based
- CONDITIONS_USED: HEK293, 1 μM VOC; 50 μM VUAA1 = 1; responses not exceeding 0.05 considered 0; read-out: OR10a Average response (VUAA1-normalized)
activation at 1 µM values by entry
Numeric only. Scale: %

Exam item: Reported activation at 1 µM, molecule C=C1CC/C=C(\C)CC[C@@H]2[C@@H]1CC2(C)C [(-)-trans-caryophyllene] : ____
Marked response: 14

* * *

- TESTED_ON: Drosophila OR47a (Drosophila melanogaster)
- Construct: expressed in transfected cells
- ASSAY_METHOD_TEXT: Calcium ion fluorescence (GCaMP6) assay, OR47a stable HEK293 cell line
- Assay type: cell-based
- CONDITIONS_USED: OR47a cell line; odorant cc. 1 µM; mean of biological replicates
Quick rule for you: Average response under 0.02 gets criterion met, anything else gets criterion not met.

COMPOUND: CCCCC(C)=O [2-hexanone]
CAT: criterion not met

Exam item: Input CCCCCCCO [1-heptanol] ; condition: Average response strictly below 0.02. Does it hold?
Marked response: criterion met

Exam item: Input CCCCCCCCC=O [nonanal] ; condition: Average response strictly below 0.02. Does it hold?
Marked response: criterion met

Exam item: Input CC(C)=CCC/C(C)=C/CC/C(C)=C/CO [e,e-farnesol] ; condition: Average response strictly below 0.02. Does it hold?
Marked response: criterion not met

Exam item: Input C=Cc1ccccc1 [styrene] ; condition: Average response strictly below 0.02. Does it hold?
Marked response: criterion not met
